Biological target: T1, Human EphA2 (Ecto) (Human, UniProt P29317 24-537)
T1 construct: extracellular domain
T1 sequence (P29317 24-537): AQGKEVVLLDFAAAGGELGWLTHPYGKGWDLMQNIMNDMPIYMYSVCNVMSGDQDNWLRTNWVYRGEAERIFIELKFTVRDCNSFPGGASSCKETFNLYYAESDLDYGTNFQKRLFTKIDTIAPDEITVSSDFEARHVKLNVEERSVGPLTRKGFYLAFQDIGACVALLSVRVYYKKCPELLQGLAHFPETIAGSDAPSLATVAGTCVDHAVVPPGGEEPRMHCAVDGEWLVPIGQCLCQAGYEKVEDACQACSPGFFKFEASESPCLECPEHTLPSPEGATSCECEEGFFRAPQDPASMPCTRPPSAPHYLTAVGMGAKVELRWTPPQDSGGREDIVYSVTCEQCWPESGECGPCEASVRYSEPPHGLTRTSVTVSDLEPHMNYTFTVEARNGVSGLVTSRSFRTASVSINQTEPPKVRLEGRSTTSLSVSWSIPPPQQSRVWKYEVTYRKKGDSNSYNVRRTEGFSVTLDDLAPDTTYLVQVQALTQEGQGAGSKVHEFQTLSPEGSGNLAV
Assay: FP competition; competitor Compound 18
Description: Peptides without a fluorescent tag were tested in competition with a peptide with a fluorescent tag and a known Kd (Table 2). Peptides were diluted to an appropriate concentration in assay buffer as described in the direct binding assay with a maximum of 5% DMSO, then serially diluted 1 in 2. […] Measurements were conducted as for the direct binding assay, however the gain was determined prior to the first measurement.
Numbered stars: 1 amine (or outer) side, 2 acyl side, 3 side chain; on linkers, the order of the positions; unused ones are H or OH. Bridge positions count the residues as written; N and C are the ends. Square brackets hold non-standard residues; d marks the D form. Ends that are not written are not given here. ThiAz = 3-(1,2,4-triazol-1-yl)-alanine, O=C([C@H](Cn1cncn1)N[*:1])[*:2]; 1Nal = N[C@@H](Cc1cccc2ccccc12)C(=O)O; TBMB = c1c(C[*:1])cc(C[*:3])cc1C[*:2]; hArg = N=C(N)NCCCC[C@H](N)C(=O)O; Tle = CC(C)(C)[C@H](N)C(=O)O; Aib = CC(C)(N)C(=O)O; Sar = CNCC(=O)O
In this section, each of the binders is paired with its reported Ki.
Assay Readout: Ki

Binder	Recorded Value
Ac-[Sar][Sar]A[dD]VTCPWGPFWCPLNRPGC (linker 7-14-21 via TBMB) [Compound 174]	9.1 nM
Ac-[Sar][Sar]A[dD]VTCP[1Nal]G[Aib]FWCPVNR[Aib]GC (linker 7-14-21 via TBMB) [Compound 178]	2.4 nM
[Sar][Sar]AH[dA]VPCPWGPFWCPVNRPGC (linker 8-15-22 via TBMB) [Compound 206]	8.3 nM
Ac-[Sar][Sar]H[dD]VPCP[1Nal]G[Aib]F[1Nal]CPVNR[Aib]GC (linker 7-14-21 via TBMB) [Compound 261]	0.63 nM
[Sar][Sar]ACP[1Nal]GPFWCP[Tle]NRPGC (linker 4-11-18 via TBMB) [Compound 121]	3.65 nM
[Sar][Sar]ACP[1Nal]GPFWCPVNRP[dA]C (linker 4-11-18 via TBMB) [Compound 116]	2.95 nM
[Sar][Sar]ACPWGPF[1Nal]CPV[dA]RPGC (linker 4-11-18 via TBMB) [Compound 117]	53 nM
ADVHCPWGPFWCPV[dA]RPGCA (linker 5-12-19 via TBMB) [Compound 155]	2 nM
[Sar][Sar]AHDAPCPWGPFWCPVNRPGC (linker 8-15-22 via TBMB) [Compound 214]	22.5 nM
AHDVPCP[1Nal]G[Aib]FWCP[Tle]N[hArg]PGC (linker 6-13-20 via TBMB) [Compound 191]	3.1 nM
AGEMACPWGPFWCPVNRPGCA (linker 6-13-20 via TBMB) [Compound 53]	12.3 nM
Ac-[Sar][Sar]H[dD]VPCP[1Nal]G[Aib]FWCPVNR[Aib]GC (linker 7-14-21 via TBMB) [Compound 266]	1.6 nM
[Sar][Sar]ACP[1Nal]GPFWCPVN[hArg]PGC (linker 4-11-18 via TBMB) [Compound 122]	9.55 nM
[Sar][Sar]ACPWGPF[1Nal]CPVNRPGC (linker 4-11-18 via TBMB) [Compound 96]	31.3 nM
[Sar][Sar]AHDV[dA]CPWGPFWCPVNRPGC (linker 8-15-22 via TBMB) [Compound 219]	15 nM
[Sar][Sar]A[ThiAz]DVPCPWGPFWCPVNRPGC (linker 8-15-22 via TBMB) [Compound 202]	0.7 nM
[Sar][Sar]A[dH]DVPCPWGPFWCPVNRPGC (linker 8-15-22 via TBMB) [Compound 197]	1.2 nM
ACPWGPFWCPVARPGC (printed: Sar2-ACPWGPFWCPVARPGC; TBMB on the 3 Cys) [Compound 101]	293 nM
Ac-[Sar][Sar]A[dH]DVPCPWGPFWCPVNRPGC (linker 8-15-22 via TBMB) [Compound 196]	0.95 nM
AHDVPCP[1Nal]G[Aib]FWCP[Tle]NR[Aib]GC (linker 6-13-20 via TBMB) [Compound 192]	1.75 nM
Ac-[Sar][Sar]A[dH]DVCPWGPFWCPVNRPGC (linker 7-14-21 via TBMB) [Compound 198]	20 nM
[Sar][Sar]ACPWGPAWCPVNRPGC (linker 4-11-18 via TBMB) [Compound 83]	199 nM

Reference source for all entries: patent US20200338203A1
